Assay: xn = mol fraction of the nth substance listed, in the solute-free solvent
Settings: 293.15 K; x2 = 0.3103
compounds and their reported solubility (g/100 g solution)

The value of solubility (g/100 g solution) measured for the compound Nc1cccc2ccncc12 + CCCO + O turned out to be 1.01

The value of solubility (g/100 g solution) measured for the compound CN1CCC(N(Cc2cccs2)c2ccccc2)CC1 + CC(C)O + O turned out to be 1.54

The value of solubility (g/100 g solution) measured for the compound CN1CCC(N(Cc2cccs2)c2ccccc2)CC1 + CCCO + O turned out to be 1.91

The value of solubility (g/100 g solution) measured for the compound Nc1cccc2ccncc12 + CC(C)O + O turned out to be 0.819

The value of solubility (g/100 g solution) measured for the compound Cc1ccc2cc(Br)ccc2n1 + CC(C)O + O turned out to be 0.787
